Test system: 334ATM WT cells
RUN DESCRIPTION: Survival assay (MTS), ATM wild-type mouse kidney cells
Assay type: cell-based
CONDITION PARAMETERS: 72 hrs, read-out: cell survival IC50 WT
Method: To test this possibility, we compared the effects of curcumin and EF24 in an ATM KO mouse kidney cell line (309ATM KO) and its isogenic, wild type counterpart (334ATM WT). […] We next treated these cell lines with various concentrations of EF24 and measured their survival after 72 hrs. Figure 6 EF24 but not curcumin or DRB is more toxic to ATM-deficient mouse kidney cells than wild-type cells. […] Cell viability was measured after 3 days by MTS assay. […]
RECORDED ENDPOINT: IC50 (µM)
Enter your answer as a number in µM; do not include the unit.

Ask: Query IC50 for OC[C@H]1O[C@@H](n2cnc3cc(Cl)c(Cl)cc32)[C@H](O)[C@@H]1O [DRB, reference compound]
Result: 60
